Values were extracted from paper PMC6779874.

# tested-target: PAI-1 (plasminogen activator inhibitor-1) (Homo sapiens)
# Construct: gene SERPINE1; Recombinant human PAI-1
# measurement-description: SPR (Biacore […], immobilized PAI-1); also CETSA/ITDR in cell extract
# Format: binding
endpoint-name: pKd
Expect pKd as a plain number equal to -log10 of the molar concentration.

Would you kindly share the measured pKd for C=C1C(=O)O[C@H]2[C@H]1CCC(C)=C1CC[C@@](C)(O)[C@@H]12 ?
4.97

---

# tested-target: PAI-1 (plasminogen activator inhibitor-1) (Homo sapiens, UniProt P05121)
# Construct: gene SERPINE1; Recombinant human PAI-1
# Sequence (P05121 24-402): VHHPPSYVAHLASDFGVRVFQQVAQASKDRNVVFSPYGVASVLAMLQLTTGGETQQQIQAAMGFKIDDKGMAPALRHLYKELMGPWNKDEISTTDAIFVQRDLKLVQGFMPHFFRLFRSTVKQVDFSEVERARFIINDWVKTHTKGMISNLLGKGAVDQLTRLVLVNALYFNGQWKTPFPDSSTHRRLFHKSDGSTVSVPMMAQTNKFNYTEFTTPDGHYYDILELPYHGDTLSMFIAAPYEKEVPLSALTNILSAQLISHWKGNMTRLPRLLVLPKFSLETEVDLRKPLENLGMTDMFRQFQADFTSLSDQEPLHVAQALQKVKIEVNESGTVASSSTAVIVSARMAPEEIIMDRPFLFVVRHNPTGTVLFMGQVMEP
# measurement-description: SPR (Biacore […], immobilized PAI-1); also CETSA in cell extract; prodrug that releases MCL
# Assay type: binding
endpoint-name: Kd (µM)
# value in µM; strip the unit string

Would you kindly share the measured Kd for CC1=C2CC[C@@](C)(O)[C@@H]2[C@H]2OC(=O)[C@@H](CN(C)C)[C@@H]2CC1 ?
2310
